System: HT29 colon
Experiment: NCI tumour cell line growth inhibition, 48 h
Assignment: determine reported TGI for the given compounds.

Known results for compounds:
# compound, subjectOfTest, result
measured = [
    ("CCN(C(=O)N[C@@H](Cc1ccccc1)C(=O)N[C@@H](CC(C)C)C(=O)NC)c1ccccc1", "HT29 colon", "> 100 µM"),
    ("COC(=O)/C(C#N)=C1\\CCC(Nc2cccc(C(F)(F)F)c2)N1C (stereo unspecified)", "HT29 colon", "> 100 µM"),
    ("N#Cc1cc(-c2nc3cc(F)ccc3s2)ccc1N", "HT29 colon", "> 100 µM"),
]

I have 4 compounds here; please give me TGI for each one.
1. COc1cccc(-c2cc(=O)c3cc(NC(C)=O)ccc3[nH]2)c1
2. C[PH+](C)C.C[PH+](C)C.[Au]
3. COc1ccc(/C=C/C(=O)Oc2ccc(/C=C3\CCCCC3=O)cc2)cc1
4. O=C(/C=C/c1ccc2c(c1)OCO2)NCc1ccco1

> 100 µM
20.8 µM
26.3 µM
> 100 µM

I have 4 compounds here; please give me TGI for each one.
1. O=c1cc(N2CCOCC2)oc2c(-c3ccc4c(c3)OCCO4)csc12
2. COc1cc(C(=O)/C=C/c2cc(-c3cc(OC)c(OC)c(OC)c3)n[nH]2)cc(OC)c1OC
3. O=C1N=C(c2c(-c3[nH]c(=O)c4ccc(Br)cc4c3O)c(O)c3ccccc3c2O)C(=O)c2cc(Br)ccc21
4. CC1(C)CC2(S(=O)(=O)c3ccccc3)ON1CC2S(=O)(=O)c1ccccc1 (stereo unspecified)

12.2 µM
3.37 µM
> 16.7 µM
> 100 µM
